System: CAKI-1 renal
testMethodNotes: NCI tumour cell line growth inhibition, 48 h
parameterMeasured: TGI

molecule | TGI
Cn1cc(C2=C(c3c[nH]c4ccccc34)C(=O)NC2=O)c2ccccc21 | > 25 µM
CC1OC(=O)C(O)=C1O (centres undefined) | > 100 µM
C#CCOC(=O)c1ccc(OC(C)=O)cc1 | > 100 µM

Let us move to another entry and its TGI.
Specify TGI for CC(C)CCOC(=O)NC(Nc1ccc(F)cc1)(C(F)(F)F)C(F)(F)F , system CAKI-1 renal. > 100 µM

---

Test system: BT-549 breast
testMethodNotes: NCI tumour cell line growth inhibition, 48 h
parameterMeasured: TGI

Completed entries (count: 7):
compound | endpointResult
CCCc1cc(=O)n2c(C(=O)Nc3ccc(F)cc3)c(C(=O)Nc3ccc(F)cc3)sc2n1 | > 160 µM
COc1ccccc1NC(=O)CC(=O)NN | > 100 µM
OC(NN=C1CCCC1)(C(F)(F)Cl)C(F)(F)Cl | > 10 µM
CC(=O)OC12C=C(C)C(C(C)C1)C1C(=O)N(CCN3CCCCC3)C(=O)C12 (stereo not drawn) | > 50 µM
Cn1c(=O)sc2cc(C(=S)N3CCCCC3)ccc21 | > 100 µM
O=C(NC(=O)c1c(Cl)nc2sccn12)Nc1ccc(Cl)cc1 | > 81.9 µM
O=C(O)c1ccccc1C1c2ccccc2Oc2ccccc21 | > 100 µM

Would you please give the reported TGI of COc1cc2nc(-c3cccs3)nc(Nc3cccc(Cl)c3)c2cc1OC with BT-549 breast? > 100 µM

---

System: SNB-19 CNS
testMethodNotes: NCI tumour cell line growth inhibition, 48 h; in the data active = GI50 below about 0.43 µM; inactive = the rest
// classify into active, inactive

Some solved entries appear below for comparison.
molecule | groupLabel
CSc1nc2nc3c(nc2c(=O)n1C)C(=O)c1ccccc1C3=O | active
N#CC1=C(N)Oc2c(ccc3ccccc23)C1c1cc(=O)oc2ccc(Cl)cc12 (stereo unspecified) | inactive
ClCc1ccccc1Cn1cnc2ncnc(Cl)c21 | inactive

Answer briefly: the call reported for COc1cc(OC)cc(C2C3=C(COC3=O)Nc3cc(OC)ccc32)c1 (stereo unspecified) in this assay. active

How did this test come out for COc1cccc2cc(N(C)c3nc(C)nc4c3CCC4)ccc12 ? active

Please state the recorded outcome for this molecule: CN(C)CCCn1c(=O)c2ccccc2c2cnc3[nH]ccc3c21 inactive

Tell me the assay call for CCCOC(=O)c1c(C)n(C)c2scc[n+]12 please. inactive

Per the records of this test, what outcome belongs to CC/C(Cc1ccccc1)=C(\c1ccc(OCCN2CCCC2)cc1)c1ccc(OC(=O)NCc2ccccc2)cc1 ? inactive

---

Tested on: ACHN renal
testMethodNotes: NCI tumour cell line growth inhibition, 48 h
Kindly return TRUE if reported TGI is no lower than 30 µM; return FALSE if it is lower.

See these solved cases before continuing.
compound | groupLabel
CC1CCC2(OC1)OC1C(O)C3C4CCC5CC(OC6OC(CO)C(OC7OC(CO)C(O)C(OC8OCC(O)C(O)C8O)C7OC7OC(CO)C(O)C(OC8OC(CO)C(O)C(O)C8O)C7O)C(O)C6O)C(O)CC5(C)C4CCC3(C)C1C2C (centres undefined) | FALSE
NC1c2ccccc2Nc2ccccc21 | FALSE
CN1Cc2ccccc2/C=C\c2ccccc21 | TRUE
COc1ccc(C(=O)/C=C/c2cc(-c3cc(OC)c(OC)c(OC)c3)n[nH]2)cc1 | FALSE
CCCc1cc(=O)n2c(C(=O)Nc3ccc(F)cc3)c(C(=O)Nc3ccc(F)cc3)sc2n1 | TRUE

// inclusive: TGI at least 30 µM? input: CC(=O)OC12C=C(C)C(C(C)C1)C1C(=O)N(CCN3CCCCC3)C(=O)C12 (centres undefined) TRUE

Decide: TGI of CC(C)OC(=S)Nc1ccc(Cl)c(/C=N/OC(C)(C)C)c1 >= 30 µM? FALSE

Check the entry CCCCCCCCC#CCCCCCCCCCC[C@@H]1C(=O)O[C@H](C)[C@@H]1O (tested in a mixture with another compound) : does TGI equal or exceed 30 µM? TRUE

Decide: is the reported value of TGI for CCCCCCCCOc1ccc(/C=C/C2=[N+](CCO)CCO2)cc1 equal to or greater than 30 µM? FALSE

Answer whether TGI of Cc1nc(Nc2ccccc2Cl)sc1C(=O)CC(=O)C(N)=O is greater than or equal to 30 µM. TRUE

Determine whether measured TGI meets or exceeds 30 µM for COc1ccc(Oc2ccccc2N)cc1 TRUE

Record Clc1cc(Cl)ncn1 ; criterion: TGI no lower than 30 µM. Met? TRUE

Could you please find out whether Cc1cc(N(CCOS(C)(=O)=O)CCOS(C)(=O)=O)ccc1C(=O)O has TGI that meets 30 µM or exceeds it? TRUE

Can COc1ccc(C)cc(=O)c1O be said to have TGI at or above 30 µM? TRUE

Is reported TGI greater than or equal to 30 µM here: O=C(/C=C/C=C/c1ccccc1)c1ccco1 TRUE

Entry COc1cc(/C=C/c2ccc(O)c(OC)c2)cc(OC)c1 : is its TGI no less than 30 µM? TRUE

# check: TGI of COc1nc(C#CC2CCCCC2)nc(OC)n1 is greater than or equal to 30 µM FALSE

Quick check, TGI >= 30 µM? COc1ccccc1C1C(C#N)=C(N)Oc2n[nH]c(C)c21 (centres undefined) TRUE

Is TGI for CCCCCC(=O)Nc1nc2nc[nH]c2c(=O)[nH]1 at or above 30 µM? TRUE

Check this compound for TGI at or above 30 µM: NC(=O)CN1C=CCC(C(N)=O)=C1 TRUE

Test whether the compound CC(=O)C(C)(C)CCC(C)(C)C(C)=O records TGI of 30 µM or higher. TRUE
